- Procedure summary: Bioluminescence emission spectra
- Format: physicochemical
- Condition description: emission spectrum with native coelenterazine
We begin with a simple list: items and their reported Wavelength (nm) peak.
Output spec: scalar in nm, unitless text.

Solved cases (3 shown):
# Molecule, Units text, Wavelength (nm) peak
rows = [
    ("A54P/A55T/C124A: RLuc mutant A54P/A55T/C124A (protein) MASKVYDPEQRKRMITGPQWWARCKQMNVLDSFINYYDSEKHAENAVIFLHGNPTSSYLWRHVVPHIEPVARCIIPDLIGMGKSGKSGNGSYRLLDHYKYLTAWFELLNLPKKIIFVGHDWGAALAFHYSYEHQDKIKAIVHAESVVDVIESWDEWPDIEEDIALIKSEEGEKMVLENNFFVETMLPSKIMRKLEPEEFAAYLEPFKEKGEVRRPTLSWPREIPLVKGGKPDVVQIVRNYNAYLRASDDLPKMFIESDPGFFSNAIVEGAKKFPNTEFVKVKGLHFSQEDAPDEMGKYIKSFVERVLKNEQ", "nm", 470),
    ("C124A/S130A: RLuc mutant C124A/S130A (protein) MASKVYDPEQRKRMITGPQWWARCKQMNVLDSFINYYDSEKHAENAVIFLHGNAASSYLWRHVVPHIEPVARCIIPDLIGMGKSGKSGNGSYRLLDHYKYLTAWFELLNLPKKIIFVGHDWGAALAFHYAYEHQDKIKAIVHAESVVDVIESWDEWPDIEEDIALIKSEEGEKMVLENNFFVETMLPSKIMRKLEPEEFAAYLEPFKEKGEVRRPTLSWPREIPLVKGGKPDVVQIVRNYNAYLRASDDLPKMFIESDPGFFSNAIVEGAKKFPNTEFVKVKGLHFSQEDAPDEMGKYIKSFVERVLKNEQ", "nm", 482),
    ("F116L/C124A: RLuc mutant F116L/C124A (protein) MASKVYDPEQRKRMITGPQWWARCKQMNVLDSFINYYDSEKHAENAVIFLHGNAASSYLWRHVVPHIEPVARCIIPDLIGMGKSGKSGNGSYRLLDHYKYLTAWFELLNLPKKIILVGHDWGAALAFHYSYEHQDKIKAIVHAESVVDVIESWDEWPDIEEDIALIKSEEGEKMVLENNFFVETMLPSKIMRKLEPEEFAAYLEPFKEKGEVRRPTLSWPREIPLVKGGKPDVVQIVRNYNAYLRASDDLPKMFIESDPGFFSNAIVEGAKKFPNTEFVKVKGLHFSQEDAPDEMGKYIKSFVERVLKNEQ", "nm", 486),
]

Pending molecule:
**Query** Would you kindly share the measured Wavelength (nm) peak for C124A/G229E: RLuc mutant C124A/G229E (protein) MASKVYDPEQRKRMITGPQWWARCKQMNVLDSFINYYDSEKHAENAVIFLHGNAASSYLWRHVVPHIEPVARCIIPDLIGMGKSGKSGNGSYRLLDHYKYLTAWFELLNLPKKIIFVGHDWGAALAFHYSYEHQDKIKAIVHAESVVDVIESWDEWPDIEEDIALIKSEEGEKMVLENNFFVETMLPSKIMRKLEPEEFAAYLEPFKEKGEVRRPTLSWPREIPLVKGEKPDVVQIVRNYNAYLRASDDLPKMFIESDPGFFSNAIVEGAKKFPNTEFVKVKGLHFSQEDAPDEMGKYIKSFVERVLKNEQ ?
**Result** 473
